# Test system: Plasmodium berghei
# experiment_summary: Screen against P. berghei liver stage (PbLuc), transformed with Luciferase, at 10uM
# Type: functional, HepG2
# measurement_parameters: tested at 10 uM
Screen size: about 69,000 compounds; about 8,600 (12%) showed an effect of 50% or more. Shown is part of a subset that was picked to be rich in strong results.
# INHIBITION >= 20% gives Satisfied, anything below gives Not satisfied

Known results for molecules:
molecule="Cc1ccc(CN(C)C(=O)CN2CCCCC2Cn2cncn2)cc1 (configuration not stated)" answer_label=Satisfied
molecule="CN(Cc1cccs1)C(=O)CN1CCCC1Cn1cncn1 (configuration not stated)" answer_label=Satisfied
molecule=NC(=O)c1cc2c(nc1Oc1ccc(CN3CCCC3)cc1F)CCC2 answer_label=Satisfied
molecule="CN1CCCCC1Cc1nc2c(cc1C(N)=O)CCC2 (configuration not stated)" answer_label="Not satisfied"
molecule="CN(Cc1cccs1)C(=O)CN1CCCCC1Cn1cncn1 (configuration not stated)" answer_label=Satisfied
molecule="Cc1ccc(CN(C)C(=O)CN2CCCC2Cn2cncn2)cc1 (configuration not stated)" answer_label=Satisfied

Q: Tell me whether INHIBITION is at least 20% here: CN(Cc1cccs1)C(=O)CN1CCOC(Cn2cncn2)C1 (configuration not stated)
A: Satisfied

Q: Tell me whether INHIBITION is at least 20% here: "O=C(CSc1ccccn1)N1C[C@@H]2CC[C@H]1CN(Cc1cscn1)C2"
A: Not satisfied

Q: Tell me whether INHIBITION is at least 20% here: Cc1cnn(CC2CN(CC(=O)N(C)Cc3cccs3)CCO2)c1 (configuration not stated)
A: Satisfied

Q: Tell me whether INHIBITION is at least 20% here: CN(Cc1ccccc1)C(=O)CN1CCOC(Cn2cncn2)C1 (configuration not stated)
A: Not satisfied

Q: Tell me whether INHIBITION is at least 20% here: "COc1ccnc(N2CCN(C(=O)Cc3ccn(C(C)C)n3)CC2)n1"
A: Not satisfied

Q: Tell me whether INHIBITION is at least 20% here: CN(Cc1ccsc1)C(=O)CN1CCCC1Cn1cccn1 (configuration not stated)
A: Satisfied

----------
# Tested on: Plasmodium berghei
# experiment_summary: Screen against P. berghei liver stage (PbLuc), transformed with Luciferase, at 10uM
# Assay type: functional, HepG2
# measurement_parameters: tested at 10 uM
Hit rate of the full screen: of about 69,000 compounds, about 8,600 (12%) showed an effect of 50% or more. For the sample, strong results were picked, then their nearest neighbours and some compounds at random.
Recorded INHIBITION, one value per entry.
Use % as the unit, but write only the number.

compound="CC(c1ccccc1Cl)N(C)Cc1nc2c(cnn2C)c(=O)[nH]1 (configuration not stated)" outcome_measure=INHIBITION recorded_value=16.165

For this compound ( "c1ccc(NC[C@@H]2CCC[C@@H]3CN(c4ncccn4)C[C@@H]32)nc1" ), measured INHIBITION is 48.4

For this compound ( "O=c1c2cccc(F)c2ncn1CCN1CCNCC1" ), measured INHIBITION is -74

For this compound ( "COc1ccnc(N2CCN(Cc3ncc(-c4ccccc4)o3)CC2)n1" ), measured INHIBITION is 56

For this compound ( CCN(CC)C(CNCc1ccc(O)cc1)c1ccco1 (configuration not stated) ), measured INHIBITION is 77.8

For this compound ( CCC(C)NS(=O)(=O)c1ccc(C(=O)N(C)C2(C#N)CCC2)cc1 (configuration not stated) ), measured INHIBITION is 46.3

For this compound ( "CNC(=O)CN1CC[C@H]2CN(C(=O)c3cccc(C)c3)C[C@H]2C1" ), measured INHIBITION is 8.52

----------
Recorded INHIBITION, one value per entry.
# System: Plasmodium berghei
# experiment_summary: Screen against P. berghei liver stage (PbLuc), transformed with Luciferase, at 10uM
# Format: functional, HepG2
# measurement_parameters: tested at 10 uM
The campaign covered roughly 69,000 compounds. About 8,600 (12%) showed an effect of 50% or more. Many of the other results were omitted from the sample, so strong results are more common in it than they were.
Use % as the unit, but write only the number.

Summary line: "NC(=O)CN1CCC2(CC1)C[C@@H](O)[C@H](c1ccccc1)NC2=O" , Plasmodium berghei, reported INHIBITION = 53.2

----------
# Tested on: Plasmodium berghei
# experiment_summary: Screen against P. berghei liver stage (PbLuc), transformed with Luciferase, at 10uM
# Type: functional, HepG2
# measurement_parameters: tested at 10 uM
Hit rate of the full screen: of about 69,000 compounds, about 8,600 (12%) showed an effect of 50% or more. What follows is part of a selection rich in strong results, with near analogues and random picks from the rest.
outcome_measure: INHIBITION (%)
Use % as the unit, but write only the number.

Completed entries (count: 3):
molecule="CC(NC(=O)c1cccc[n+]1[O-])C1CC1 (centres undefined)" recorded_value=9
molecule="Cc1nc(CCNC(=O)C2CC(=O)N(C(C)C)C2)sc1C (centres undefined)" recorded_value=22.3
molecule=O=C(O)c1ccnc(-c2ccnc(NCCc3nc4c(s3)CCC4)n2)c1 recorded_value=30.9

For this molecule ( CC1c2cc(F)ccc2CCN1C(=O)c1[nH]c(=O)[nH]c(=O)c1N (centres undefined) ), measured INHIBITION is 33.4

For this molecule ( "CCN1C[C@H]2[C@@H](C1)N(C(=O)Cc1ccsc1)CC[C@H]2OC" ), measured INHIBITION is -9.74

For this molecule ( "Cc1cc(C(=O)NCCc2cn3nc(C)sc3n2)c(C)o1" ), measured INHIBITION is -98.6

For this molecule ( COc1cc(OC)c(C2CC(=O)Oc3cc(C)[nH]c(=O)c32)cc1OC (centres undefined) ), measured INHIBITION is 4.07

For this molecule ( "COC(=O)CSCc1noc(-c2ccc(C)cc2)n1" ), measured INHIBITION is 91.3

For this molecule ( "CC(C)c1cc(C(=O)NCCc2nc3c(s2)CCC3)n(C)n1" ), measured INHIBITION is 89.6

----------
# System: Plasmodium berghei
# experiment_summary: Screen against P. berghei liver stage (PbLuc), transformed with Luciferase, at 10uM
# Type: functional, HepG2
# measurement_parameters: tested at 10 uM
Screen size: about 69,000 compounds; about 8,600 (12%) showed an effect of 50% or more. The sample as a whole holds a higher share of strong results than the screen did.
outcome_measure: INHIBITION (%)
Use % as the unit, but write only the number.

compound="Cn1cnc(S(=O)(=O)NCC(O)c2ccc3c(c2)CCO3)c1 (centres undefined)" assay_system="Plasmodium berghei" recorded_value=25.3
compound="CCc1cc(C)nc(N2CCN(C(C)c3nc(C)no3)CC2)n1 (centres undefined)" assay_system="Plasmodium berghei" recorded_value=53.4
compound="O=C(CCc1ccc2c(c1)OCO2)N1CCCCC1Cn1cccn1 (centres undefined)" assay_system="Plasmodium berghei" recorded_value=-0.219

For this compound ( Cc1noc(C(C)N2CCN(c3ncnc4sccc34)CC2)n1 (centres undefined) ), measured INHIBITION is 68.8

For this compound ( O=C(CCc1ccncc1)N1CCCC(n2cccn2)C1 (centres undefined) ), measured INHIBITION is 24.39

For this compound ( "CCN1CCN(C2CCN(Cc3nc(C)c(C)o3)CC2)C1=O" ), measured INHIBITION is 44.1

For this compound ( Cc1ccc(CN2CC(C(=O)N3CCCC3)C3(CCOCC3)C2)s1 (centres undefined) ), measured INHIBITION is -11.1

For this compound ( "CC1CCN(Cc2c(C(C)C)[nH]c3ncccc23)CC1" ), measured INHIBITION is 8.12

For this compound ( c1ccc(OCc2cscn2)c(CNC2CCc3ncnn3C2)c1 (centres undefined) ), measured INHIBITION is 3.1

----------
# Tested on: Plasmodium berghei
# experiment_summary: Screen against P. berghei liver stage (PbLuc), transformed with Luciferase, at 10uM
# Format: functional, HepG2
# measurement_parameters: tested at 10 uM
The whole screen tested about 69,000 compounds, of which about 8,600 (12%) showed an effect of 50% or more. Many of the other results were omitted from the sample, so strong results are more common in it than they were.
# INHIBITION >= 30% gives criterion met, anything below gives criterion not met

Q: Tell me whether INHIBITION is at least 30% here: O=C1CC(c2ccccc2)C2(CCN(C(=O)c3ccncc3F)CC2)N1 (stereo unspecified)
A: criterion met

----------
# Tested on: Plasmodium berghei
# experiment_summary: Screen against P. berghei liver stage (PbLuc), transformed with Luciferase, at 10uM
# Type: functional, HepG2
# measurement_parameters: tested at 10 uM
Screen size: about 69,000 compounds; about 8,600 (12%) showed an effect of 50% or more. The list comes from a sample in which strong results are over-represented; it also holds close analogues and randomly drawn compounds.
Hi! Could you tag entries with INHIBITION below 20% as Y, and those at or above as N? Much appreciated.

Known results for molecules:
molecule="CCOCC(=O)N1CCCC2(CCN(c3ccccc3)C2=O)C1 (stereo not given)" answer_label=N
molecule="COc1ccc(C2=NOC(CO)C2)cc1 (stereo not given)" answer_label=N
molecule="COCC(=O)N1CCCC2(CCN(c3ccccc3)C2=O)C1 (stereo not given)" answer_label=N
molecule="CNC(=O)c1cn[nH]c1C1CCCN1C(=O)c1ccccn1 (stereo not given)" answer_label=Y
molecule="O=C(CC1CC1)N1CCC2(CC(=O)N(c3cccc(F)c3)C2)C1 (stereo not given)" answer_label=Y

Q: Hi there! Is INHIBITION for O=C1CC2(CCN(Cc3cccs3)C2)CN1c1cccc(F)c1 (stereo not given) below 20%, do you know?
A: N

Q: Hi there! Is INHIBITION for Cc1cnc(N2CCC(OCCN3CCCCC3)C2)nc1C (stereo not given) below 20%, do you know?
A: N

Q: Hi there! Is INHIBITION for "O=S1(=O)COCCN1Cc1ccc(Cl)c(Cl)c1" below 20%, do you know?
A: Y

Q: Hi there! Is INHIBITION for "Cc1ccc(N2CCC3(CCN(C(=O)c4ccoc4)CC3)CC2)nn1" below 20%, do you know?
A: Y

Q: Hi there! Is INHIBITION for c1cnc(N2CCC(OCCN3CCCCC3)C2)nc1 (stereo not given) below 20%, do you know?
A: N

Q: Hi there! Is INHIBITION for Cc1cnc(N2CCCOC(CN3CCCCC3)C2)nc1 (stereo not given) below 20%, do you know?
A: N

Q: Hi there! Is INHIBITION for "CNc1nc2cn(-c3cccc(OC)c3)c(=O)c-2c[nH]1" below 20%, do you know?
A: Y

Q: Hi there! Is INHIBITION for COCC(=O)N1CCC2(CC(=O)N(c3cccc(F)c3)C2)C1 (stereo not given) below 20%, do you know?
A: N

Q: Hi there! Is INHIBITION for CN(CCN1CCCCCC1)c1nccc(N2CCC(O)C2)n1 (stereo not given) below 20%, do you know?
A: N

Q: Hi there! Is INHIBITION for "O=C(c1c2c(N3CCCC3)ncnc2n2ccccc12)N1CCCC1" below 20%, do you know?
A: N

Q: Hi there! Is INHIBITION for Cc1ccnc(N2CCC(OCCN3CCCCC3)C2)n1 (stereo not given) below 20%, do you know?
A: N
